The measured values listed here are drawn from ChEMBL document CHEMBL1153992.

system_tested: Toll-like receptor 7 (Mus musculus)
assay_text: Induction of TLR7 receptor-mediated C57BL/6 mouse BMD cells activation assessed as IL12 production at 5 uM after 24 hrs by ELISA
Assay type: cell-based
Activity calls are given as the source filed them. The calls are words filed in the database; no cut-off is given here.
parameter_measured: Activity

Guide cases for Activity, answers given:
chemical_smiles	Activity
CCCCOc1nc(N)c2[nH]c(=O)n(Cc3ccccc3)c2n1	Active
[N-]=[N+]=NCCCOc1nc(N)c2[nH]c(=O)n(Cc3ccccc3)c2n1	Active
COCCOc1nc(N)c2[nH]c(=O)n(Cc3ccccc3)c2n1	Active
[N-]=[N+]=NCCCCCOc1nc(N)c2[nH]c(=O)n(Cc3ccccc3)c2n1	Active
[N-]=[N+]=NCCOc1nc(N)c2[nH]c(=O)n(Cc3ccccc3)c2n1	Active
CCOCc1nc2c(N)nc3ccccc3c2n1CC(C)(C)O	Active
[N-]=[N+]=NCCCCOc1nc(N)c2[nH]c(=O)n(Cc3ccccc3)c2n1	Active
[N-]=[N+]=NCCOCCOc1nc(N)c2[nH]c(=O)n(Cc3ccccc3)c2n1	Active

Let us move to another entry and its Activity.
Give Activity for the following molecule: [N-]=[N+]=NCCCCCCOc1nc(N)c2[nH]c(=O)n(Cc3ccccc3)c2n1
Active

---

system_tested: Toll-like receptor 7 (Mus musculus)
assay_text: Induction of TLR7 receptor-mediated C57BL/6 mouse BMD cells activation assessed as upregulation of CD40 at 1 uM after 48 hrs by flow cytometry
Format: cell-based
Active and inactive are the calls of the source. The calls are words filed in the database; no cut-off is given here.
Parameter call: string, one of active, inactive

chemical_smiles	label_value
[N-]=[N+]=NCCOc1nc(N)c2[nH]c(=O)n(Cc3ccccc3)c2n1	active
COCCOc1nc(N)c2[nH]c(=O)n(Cc3ccccc3)c2n1	active
CCCCOc1nc(N)c2[nH]c(=O)n(Cc3ccccc3)c2n1	active
[N-]=[N+]=NCCCCCOc1nc(N)c2[nH]c(=O)n(Cc3ccccc3)c2n1	active
[N-]=[N+]=NCCOCCOCCOc1nc(N)c2[nH]c(=O)n(Cc3ccccc3)c2n1	inactive
[N-]=[N+]=NCCOCCOc1nc(N)c2[nH]c(=O)n(Cc3ccccc3)c2n1	active
[N-]=[N+]=NCCCCCCOc1nc(N)c2[nH]c(=O)n(Cc3ccccc3)c2n1	active
CCOCc1nc2c(N)nc3ccccc3c2n1CC(C)(C)O	active

Outcome? [N-]=[N+]=NCCCCOc1nc(N)c2[nH]c(=O)n(Cc3ccccc3)c2n1
active

What is the recorded call for this compound in the test? [N-]=[N+]=NCCCOc1nc(N)c2[nH]c(=O)n(Cc3ccccc3)c2n1
active
